test system: Cochliobolus miyabeanus; assay: Cochliobolus test (rice)/protective; type: in vivo; details: 250 ppm, protective, evaluated 4 days after inoculation
Recorded metric: Efficacy (%)
Provide the reading as a plain figure in %.

Return Efficacy for the following molecule: Cn1nc(C(F)F)c(C(=O)Nc2ccc(F)cc2-c2ccc(Cl)c(Cl)c2)c1F [Example 116] 90

Return Efficacy for the following molecule: Cn1nc(C(F)F)c(C(=O)Nc2ccccc2CCC(C)(C)C)c1Cl [Example 14] 90

Return Efficacy for the following molecule: CC(C)C1C2CCC1c1c(NC(=O)c3c(C(F)F)nn(C)c3F)cccc12 (stereo not shown) [Example 66] 93

Return Efficacy for the following molecule: Cn1nc(C(F)F)c(C(=O)Nc2ccccc2-c2ccc(C(F)(F)F)c(F)c2)c1Cl [Example 148] 95

Return Efficacy for the following molecule: Cn1nc(C(F)F)c(C(=O)Nc2ccccc2-c2cc(F)c(F)c(F)c2)c1Cl [Example 105] 95

Return Efficacy for the following molecule: CC(C)CCc1ccccc1NC(=O)c1c(C(F)F)nn(C)c1F [Example 7] 80

Return Efficacy for the following molecule: Cn1nc(C(F)F)c(C(=O)Nc2ccccc2CCC(C)(C)C)c1F [Example 13] 85

---

assay: logP by HPLC on reversed-phase column (EEC Directive 79/831 Annex V.A8); details: HPLC on a reversed-phase column (C 18), EEC Directive 79/831 Annex V.A8
Recorded metric: logP

| Structure notation | logP |
| --- | --- |
| Cn1nc(C(F)F)c(C(=O)Nc2ccc(OC(F)(F)F)cc2Br)c1F | 3.76 |
| Cn1nc(C(F)F)c(C(=O)Nc2cccc(Oc3cccc(C(F)(F)F)c3)c2)c1Cl | 3.89 |

Now consider a different molecule.
Return logP for the following molecule: `C/C(=N\OC(C)(C)C)c1ccc(-c2cccc(NC(=O)c3c(C(F)F)nn(C)c3F)c2)cc1` 5.28

---

Measured Efficacy, listed per entry for reference.
system: Fusarium nivale (var. majus); experiment: Fusarium nivale (var. majus)-test (wheat)/preventive; conditions: 500 ppm, preventive, evaluated 5 days after inoculation
Provide the reading as a plain figure in %.

Reference set, count: 3
| Structure notation | System | Efficacy / % |
| --- | --- | --- |
| Cn1nc(C(F)F)c(C(=O)Nc2ccccc2-c2cc(F)c(F)c(F)c2)c1Cl | Fusarium nivale (var. majus) | 100 |
| Cn1nc(C(F)F)c(C(=O)Nc2ccccc2-c2cccc(Cl)c2)c1F | Fusarium nivale (var. majus) | 71 |
| Cn1nc(C(F)F)c(C(=O)Nc2ccccc2-c2ccc(Cl)c(F)c2)c1F | Fusarium nivale (var. majus) | 90 |

Now consider a different molecule.
Return Efficacy for the following molecule: `Cn1nc(C(F)F)c(C(=O)Nc2ccccc2CCC(C)(C)C)c1F` 100

---

assay: logP by HPLC on reversed-phase column (EEC Directive 79/831 Annex V.A8); conditions: HPLC on reversed-phase column (C 18), EEC Directive 79/831 Annex V.A8
Measured logP, listed per entry for reference.
Form rule: numeric answer, no unit written next to it.

Reference set, count: 2
| Molecule | logP |
| --- | --- |
| CC(C)Oc1cccc(-c2cccc(NC(=O)c3c(C(F)F)nn(C)c3F)c2)c1 [compound 221] | 3.99 |
| Cn1nc(C(F)F)c(C(=O)Nc2ccccc2-c2ccc(OC(F)(F)F)cc2)c1F [compound 145] | 3.92 |

Return logP for the following molecule: Cn1nc(C(F)F)c(C(=O)Nc2cccc(-c3cc(F)cc(F)c3)c2)c1Cl [compound 210] 3.83

Return logP for the following molecule: Cn1nc(C(F)F)c(C(=O)Nc2ccccc2-c2cc(Cl)cc(Cl)c2)c1F [compound 127] 4.01

Return logP for the following molecule: CC(C)COc1ccc(-c2ccccc2NC(=O)c2c(C(F)F)nn(C)c2F)cc1 [compound 131] 4.61

Return logP for the following molecule: Cn1nc(C(F)F)c(C(=S)Nc2ccccc2-c2ccc(Cl)c(F)c2)c1Cl [Example 101] 3.92

Return logP for the following molecule: CC(C)c1ccc(-c2ccccc2NC(=O)c2c(C(F)F)nn(C)c2F)cc1 [compound 96] 4.44

Return logP for the following molecule: Cn1nc(C(F)F)c(C(=O)Nc2cccc(-c3ccc(C(C)(C)C)cc3)c2)c1F [compound 219] 4.73

Return logP for the following molecule: CC1CCCC(c2ccccc2NC(=O)c2c(C(F)F)nn(C)c2Cl)C1 (stereo not drawn) [Example 53] 4.29

Return logP for the following molecule: COCCOc1cccc(NC(=O)c2c(C(F)F)nn(C)c2F)c1 [compound 180] 2.15

Source: patent US9375004B2
